assay: Inhibitory activity against growth of WI-L2 human leukemic cells; settings: WIL2
readout label: IC50 (µM)
Give bare numbers, in µM.

Below are worked cases with known answers.
NCCCC(NC(=O)c1ccc(NCc2cnc3nc(N)nc(N)c3c2)cc1)C(=O)O (centres undefined) = 0.86
CN(Cc1cnc2nc(N)nc(N)c2n1)c1ccc(C(=O)NC(CCCNCC(=O)O)C(=O)O)cc1 (centres undefined) = 4.3

// input: 2 compounds below; output: IC50 for each
1. NCCCC(NC(=O)c1ccc(NCc2cnc3nc(N)nc(N)c3n2)cc1)C(=O)O (centres undefined)
2. NCCCC(NC(=O)c1ccc(NCc2ccc3nc(N)nc(N)c3c2)cc1)C(=O)O (centres undefined)

Output:
1. 2.6
2. 0.18

###

molecular target: Dihydrofolate reductase (Homo sapiens)
Sequence (P00374 whole entry): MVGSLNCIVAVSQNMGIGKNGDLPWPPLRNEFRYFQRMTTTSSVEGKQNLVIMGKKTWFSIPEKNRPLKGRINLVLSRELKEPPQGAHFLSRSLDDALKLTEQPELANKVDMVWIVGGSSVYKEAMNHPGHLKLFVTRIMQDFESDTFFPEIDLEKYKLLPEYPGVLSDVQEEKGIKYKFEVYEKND
readout label: pIC50
One number for each entry, as −log10 of the molar value.

NCCCC(NC(=O)c1ccc(NCc2cnc3nc(N)nc(N)c3c2)cc1)C(=O)O (configuration not stated) = 7.57

Input: Give pIC50 only, for NCCCC(NC(=O)c1ccc(NCc2ccc3nc(N)nc(O)c3c2)cc1)C(=O)O (configuration not stated) , using Dihydrofolate reductase (Homo sapiens) data.
Output: 6.12
